Recorded hEphA3-SEAP-: absorbance at 450 nm, percentage with respect to hEphA4-SEAP-His as 100%, one value per entry.
- system tested: T1, human EphA3 (Homo sapiens, UniProt P29320)
- T1 construct: a protein of the extracellular region of each human Eph receptor fused with the SEAP protein and the His tag; made in house; host or cells: Expi293F cells (culture supernatant)
- T1 sequence (P29320 21-541 limits assumed): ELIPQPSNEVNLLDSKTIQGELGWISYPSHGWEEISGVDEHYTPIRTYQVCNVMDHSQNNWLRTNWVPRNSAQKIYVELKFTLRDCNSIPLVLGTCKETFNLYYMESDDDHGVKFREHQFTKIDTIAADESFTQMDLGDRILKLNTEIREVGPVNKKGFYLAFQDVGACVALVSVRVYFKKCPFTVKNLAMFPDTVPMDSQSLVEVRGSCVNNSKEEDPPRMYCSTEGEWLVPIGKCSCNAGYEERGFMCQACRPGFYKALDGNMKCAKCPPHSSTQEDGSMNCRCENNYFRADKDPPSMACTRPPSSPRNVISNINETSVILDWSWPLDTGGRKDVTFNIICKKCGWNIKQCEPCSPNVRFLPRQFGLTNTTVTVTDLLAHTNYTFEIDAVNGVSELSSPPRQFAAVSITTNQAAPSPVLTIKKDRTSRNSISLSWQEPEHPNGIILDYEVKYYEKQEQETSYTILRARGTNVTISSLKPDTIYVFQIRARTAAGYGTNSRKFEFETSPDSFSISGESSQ
- test method notes: Selectivity ELISA of humanized antibodies for human Eph receptor
- Format: binding
- experimental parameters: coated protein 1 nM
- Source text: According to the method described in Example 7, a DNA sequence encoding the signal sequence and the extracellular region of each human Eph receptor (EphA1, EphA2, EphA3, EphA4, EphA5, EphA6, EphA7, EphA8, EphA10, EphB1, EphB2, EphB3, EphB4, and EphB6) was amplified by RT-PCR using tissue-derived total RNA and cloned into a pENTR1A vector (Invitrogen/Life Technologies) having a DNA sequence encoding SEAP protein and histidine tag. […]
Number in %, nothing else.

molecule: 71 (antibody, V domains shown, synthetic humanized antibody heavy chain variable region sequence; synthetic humanized antibody light chain variable region sequence) VH: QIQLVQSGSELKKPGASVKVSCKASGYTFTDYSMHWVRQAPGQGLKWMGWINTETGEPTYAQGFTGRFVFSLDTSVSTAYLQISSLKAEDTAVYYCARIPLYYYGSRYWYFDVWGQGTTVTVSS VL: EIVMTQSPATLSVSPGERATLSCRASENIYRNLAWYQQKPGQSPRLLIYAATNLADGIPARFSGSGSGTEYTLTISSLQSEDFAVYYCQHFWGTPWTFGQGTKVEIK
observed measurement: 5.6

Form: molecule = 81 (antibody, V domains shown, constant regions without entry; synthetic humanized antibody light chain variable region sequence; synthetic humanized antibody heavy chain variable region sequence) VL: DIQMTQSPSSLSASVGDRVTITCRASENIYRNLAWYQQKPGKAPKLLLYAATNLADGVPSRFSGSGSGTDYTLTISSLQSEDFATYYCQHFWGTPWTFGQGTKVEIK VH: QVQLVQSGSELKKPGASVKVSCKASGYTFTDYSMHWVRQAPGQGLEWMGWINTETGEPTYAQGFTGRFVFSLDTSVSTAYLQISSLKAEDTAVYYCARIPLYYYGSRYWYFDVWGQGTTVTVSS ; hEphA3-SEAP-: absorbance at 450 nm, percentage with respect to hEphA4-SEAP-His as 100% = 5.0

Form: molecule = 82 (antibody, V domains shown, constant regions without entry; synthetic humanized antibody light chain variable region sequence; synthetic humanized antibody heavy chain variable region sequence) VL: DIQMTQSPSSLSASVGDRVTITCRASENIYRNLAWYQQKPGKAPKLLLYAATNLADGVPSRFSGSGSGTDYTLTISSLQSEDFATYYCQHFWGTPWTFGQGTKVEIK VH: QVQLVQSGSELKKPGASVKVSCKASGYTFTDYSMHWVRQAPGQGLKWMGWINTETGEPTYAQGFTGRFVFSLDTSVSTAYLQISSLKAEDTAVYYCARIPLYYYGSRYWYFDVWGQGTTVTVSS ; hEphA3-SEAP-: absorbance at 450 nm, percentage with respect to hEphA4-SEAP-His as 100% = 5.4

Form: molecule = 90 (antibody, V domains shown, constant regions without entry; synthetic humanized antibody light chain variable region sequence; synthetic humanized antibody heavy chain variable region sequence) VL: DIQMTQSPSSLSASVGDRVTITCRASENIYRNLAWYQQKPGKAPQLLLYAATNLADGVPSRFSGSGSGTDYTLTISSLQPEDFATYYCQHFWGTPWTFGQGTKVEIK VH: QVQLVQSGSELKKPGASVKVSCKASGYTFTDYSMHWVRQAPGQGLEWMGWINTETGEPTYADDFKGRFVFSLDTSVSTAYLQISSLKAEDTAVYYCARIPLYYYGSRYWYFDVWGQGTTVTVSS ; hEphA3-SEAP-: absorbance at 450 nm, percentage with respect to hEphA4-SEAP-His as 100% = 5.2
